# ASSAY_PROTOCOL: clinical
# RUN_CONDITIONS: human, in vivo, iv
ENDPOINT_LABEL: MRT (h)
Write it as a number; the unit h goes unstated.

Ask: Quick one: MRT of `C[C@@H](O)[C@H]1C(=O)N2C(C(=O)O)=C(S[C@@H]3CN[C@H](C(=O)Nc4cccc(C(=O)O)c4)C3)[C@H](C)[C@H]12` ?
Reply: 4.4

Ask: So what does the record say about MRT for Nc1nc(Cl)nc2c1ncn2[C@H]1C[C@H](O)[C@@H](CO)O1 [CLADRIBINE] ?
Reply: 9.2

Ask: Quick one: MRT of CCCCCc1cc(O)c2c(c1)OC(C)(C)[C@@H]1CCC(C)=C[C@@H]21 [DRONABINOL] ?
Reply: 46

Ask: Tell me the measured MRT of CC1=C(C(=O)O)N2C(=O)[C@@H](NC(=O)[C@H](N)C3=CCC=CC3)[C@H]2SC1 [CEPHRADINE] , please.
Reply: 1.1

Ask: // MRT lookup, key: COc1ccc(C(=O)Nc2ccccc2CCC2CCCCN2C)cc1 (stereo unspecified) [ENCAINIDE]
Reply: 2.8

Ask: For CC(C)(C)[C@]1(O)CC2OC(=O)CC23C(=O)OC2OC(=O)[C@H](O)C231 (stereo partly specified) [BILOBALIDE] , what is its reported MRT?
Reply: 4

Ask: What does the data say about its MRT? Entry: C[C@@](O)(/C=C/[C@H]1CC=CC(=O)O1)[C@@H](C[C@@H](O)\C=C/C=C\C=C\CO)OP(=O)(O)O [FOSTRIECIN]
Reply: 1.2

Ask: I would be grateful if you could share the reported MRT for COc1cc2nc(N(C)CCCNC(=O)C3CCCO3)nc(N)c2cc1OC (stereo unspecified) [ALFUZOSIN] .
Reply: 4.2

Ask: Returns the measured MRT for the input compound. Input: CN(C)[C@@H]1C(O)=C(C(N)=O)C(=O)[C@@]2(O)C(O)=C3C(=O)c4c(O)ccc(Cl)c4[C@@](C)(O)[C@H]3C[C@@H]12 [CHLORTETRACYCLINE]
Reply: 7.4

Ask: Bench note: what MRT did CN(C)C(=O)Oc1ccc[n+](C)c1 [PYRIDOSTIGMINE] show?
Reply: 1.8

Ask: Give its MRT value. Item: COc1ccc(CC2c3cc(OC)c(OC)cc3CC[N+]2(C)CCC(=O)OCCCCCOC(=O)CC[N+]2(C)CCc3cc(OC)c(OC)cc3C2Cc2ccc(OC)c(OC)c2)cc1OC (stereo unspecified)
Reply: 0.29
